Where do the numbers come from? From patent US20250320194A1.

protocol_details: Stability under influencing factors (high temperature, high humidity, open, 30 days)
condition: 40° C., 10 days
result_type: Purity % (%)

| compound | result_type | recorded_value |
| --- | --- | --- |
| CC(C)(C#Cc1nc(C(Cc2cc(F)cc(F)c2)NC(=O)Cn2nc(C(F)(F)F)c3c2C(F)(F)C2CC32)c(-c2ccc(Cl)c3c(NS(C)(=O)=O)nn(CC(F)(F)F)c23)c2c1CCC2)S(C)(=O)=O.O=S(=O)(O)O (stereo not shown) [Crystal form A of hydrosulfate] | Purity % | 99.01 |
| CC(C)(C#Cc1nc(C(Cc2cc(F)cc(F)c2)NC(=O)Cn2nc(C(F)(F)F)c3c2C(F)(F)C2CC32)c(-c2ccc(Cl)c3c([N-]S(C)(=O)=O)nn(CC(F)(F)F)c23)c2c1CCC2)S(C)(=O)=O.C[N+](C)(C)CCO (stereo not shown) [Crystal form B of the choline salt] | Purity % | 98.33 |
| CC(C)(C#Cc1nc(C(Cc2cc(F)cc(F)c2)NC(=O)Cn2nc(C(F)(F)F)c3c2C(F)(F)C2CC32)c(-c2ccc(Cl)c3c([N-]S(C)(=O)=O)nn(CC(F)(F)F)c23)c2c1CCC2)S(C)(=O)=O.[K+] (stereo not shown) [Crystal form a of the potassium salt] | Purity % | 98.04 |
| CC(C)(C#Cc1nc(C(Cc2cc(F)cc(F)c2)NC(=O)Cn2nc(C(F)(F)F)c3c2C(F)(F)C2CC32)c(-c2ccc(Cl)c3c([N-]S(C)(=O)=O)nn(CC(F)(F)F)c23)c2c1CCC2)S(C)(=O)=O.[Na+] (stereo not shown) [Crystal form III of the sodium salt] | Purity % | 98.10 |

====

protocol_details: Stability under influencing factors (high temperature, high humidity, open, 30 days)
condition: 75% RH, 30 days
result_type: Purity % (%)

| compound | result_type | recorded_value |
| --- | --- | --- |
| CC(C)(C#Cc1nc(C(Cc2cc(F)cc(F)c2)NC(=O)Cn2nc(C(F)(F)F)c3c2C(F)(F)C2CC32)c(-c2ccc(Cl)c3c([N-]S(C)(=O)=O)nn(CC(F)(F)F)c23)c2c1CCC2)S(C)(=O)=O.C[N+](C)(C)CCO (stereo not shown) [Crystal form B of the choline salt] | Purity % | 98.36 |
| CC(C)(C#Cc1nc(C(Cc2cc(F)cc(F)c2)NC(=O)Cn2nc(C(F)(F)F)c3c2C(F)(F)C2CC32)c(-c2ccc(Cl)c3c(NS(C)(=O)=O)nn(CC(F)(F)F)c23)c2c1CCC2)S(C)(=O)=O.O=S(=O)(O)O (stereo not shown) [Crystal form A of hydrosulfate] | Purity % | 99.05 |
| CC(C)(C#Cc1nc(C(Cc2cc(F)cc(F)c2)NC(=O)Cn2nc(C(F)(F)F)c3c2C(F)(F)C2CC32)c(-c2ccc(Cl)c3c([N-]S(C)(=O)=O)nn(CC(F)(F)F)c23)c2c1CCC2)S(C)(=O)=O.[Na+] (stereo not shown) [Crystal form III of the sodium salt] | Purity % | 98.00 |
| CC(C)(C#Cc1nc(C(Cc2cc(F)cc(F)c2)NC(=O)Cn2nc(C(F)(F)F)c3c2C(F)(F)C2CC32)c(-c2ccc(Cl)c3c([N-]S(C)(=O)=O)nn(CC(F)(F)F)c23)c2c1CCC2)S(C)(=O)=O.[K+] (stereo not shown) [Crystal form a of the potassium salt] | Purity % | 98.02 |

====

protocol_details: Stability under influencing factors (high temperature, high humidity, open, 30 days)
condition: 60° C., 10 days
result_type: Purity % (%)

| molecule | recorded_value |
| --- | --- |
| CC(C)(C#Cc1nc(C(Cc2cc(F)cc(F)c2)NC(=O)Cn2nc(C(F)(F)F)c3c2C(F)(F)C2CC32)c(-c2ccc(Cl)c3c([N-]S(C)(=O)=O)nn(CC(F)(F)F)c23)c2c1CCC2)S(C)(=O)=O.[K+] (stereo not shown) [Crystal form a of the potassium salt] | 98.01 |
| CC(C)(C#Cc1nc(C(Cc2cc(F)cc(F)c2)NC(=O)Cn2nc(C(F)(F)F)c3c2C(F)(F)C2CC32)c(-c2ccc(Cl)c3c(NS(C)(=O)=O)nn(CC(F)(F)F)c23)c2c1CCC2)S(C)(=O)=O.O=S(=O)(O)O (stereo not shown) [Crystal form A of hydrosulfate] | 96.22 |
| CC(C)(C#Cc1nc(C(Cc2cc(F)cc(F)c2)NC(=O)Cn2nc(C(F)(F)F)c3c2C(F)(F)C2CC32)c(-c2ccc(Cl)c3c([N-]S(C)(=O)=O)nn(CC(F)(F)F)c23)c2c1CCC2)S(C)(=O)=O.[Na+] (stereo not shown) [Crystal form III of the sodium salt] | 98.08 |
| CC(C)(C#Cc1nc(C(Cc2cc(F)cc(F)c2)NC(=O)Cn2nc(C(F)(F)F)c3c2C(F)(F)C2CC32)c(-c2ccc(Cl)c3c([N-]S(C)(=O)=O)nn(CC(F)(F)F)c23)c2c1CCC2)S(C)(=O)=O.C[N+](C)(C)CCO (stereo not shown) [Crystal form B of the choline salt] | 98.36 |

====

protocol_details: Stability under influencing factors (high temperature, high humidity, open, 30 days)
condition: 60° C., 10 days

| compound | Crystal form |
| --- | --- |
| CC(C)(C#Cc1nc(C(Cc2cc(F)cc(F)c2)NC(=O)Cn2nc(C(F)(F)F)c3c2C(F)(F)C2CC32)c(-c2ccc(Cl)c3c([N-]S(C)(=O)=O)nn(CC(F)(F)F)c23)c2c1CCC2)S(C)(=O)=O.[Na+] (centres unmarked) [Crystal form III of the sodium salt] | Unchanged |
| CC(C)(C#Cc1nc(C(Cc2cc(F)cc(F)c2)NC(=O)Cn2nc(C(F)(F)F)c3c2C(F)(F)C2CC32)c(-c2ccc(Cl)c3c([N-]S(C)(=O)=O)nn(CC(F)(F)F)c23)c2c1CCC2)S(C)(=O)=O.[Na+] (centres unmarked) [Crystal form II of the sodium salt] | Unchanged |

====

protocol_details: Stability under influencing factors (high temperature, high humidity, open, 30 days)
condition: Start, 0 days
Recorded measurements of Purity %, one per entry

| molecule | reading_unit | Purity % |
| --- | --- | --- |
| CC(C)(C#Cc1nc(C(Cc2cc(F)cc(F)c2)NC(=O)Cn2nc(C(F)(F)F)c3c2C(F)(F)C2CC32)c(-c2ccc(Cl)c3c([N-]S(C)(=O)=O)nn(CC(F)(F)F)c23)c2c1CCC2)S(C)(=O)=O.[Na+] (centres unmarked) [Crystal form III of the sodium salt] | % | 98.23 |
| CC(C)(C#Cc1nc(C(Cc2cc(F)cc(F)c2)NC(=O)Cn2nc(C(F)(F)F)c3c2C(F)(F)C2CC32)c(-c2ccc(Cl)c3c(NS(C)(=O)=O)nn(CC(F)(F)F)c23)c2c1CCC2)S(C)(=O)=O.O=S(=O)(O)O (centres unmarked) [Crystal form A of hydrosulfate] | % | 99.09 |
| CC(C)(C#Cc1nc(C(Cc2cc(F)cc(F)c2)NC(=O)Cn2nc(C(F)(F)F)c3c2C(F)(F)C2CC32)c(-c2ccc(Cl)c3c([N-]S(C)(=O)=O)nn(CC(F)(F)F)c23)c2c1CCC2)S(C)(=O)=O.[K+] (centres unmarked) [Crystal form a of the potassium salt] | % | 98.03 |
| CC(C)(C#Cc1nc(C(Cc2cc(F)cc(F)c2)NC(=O)Cn2nc(C(F)(F)F)c3c2C(F)(F)C2CC32)c(-c2ccc(Cl)c3c([N-]S(C)(=O)=O)nn(CC(F)(F)F)c23)c2c1CCC2)S(C)(=O)=O.C[N+](C)(C)CCO (centres unmarked) [Crystal form B of the choline salt] | % | 98.34 |
| CC(C)(C#Cc1nc(C(Cc2cc(F)cc(F)c2)NC(=O)Cn2nc(C(F)(F)F)c3c2C(F)(F)C2CC32)c(-c2ccc(Cl)c3c([N-]S(C)(=O)=O)nn(CC(F)(F)F)c23)c2c1CCC2)S(C)(=O)=O.[Na+] (centres unmarked) [Crystal form II of the sodium salt] | % | 97.76 |

====

Reported Purity % by item:
protocol_details: Stability under influencing factors (high temperature, high humidity, open, 30 days)
condition: 40° C., 30 days

| compound | Purity %, % |
| --- | --- |
| CC(C)(C#Cc1nc(C(Cc2cc(F)cc(F)c2)NC(=O)Cn2nc(C(F)(F)F)c3c2C(F)(F)C2CC32)c(-c2ccc(Cl)c3c([N-]S(C)(=O)=O)nn(CC(F)(F)F)c23)c2c1CCC2)S(C)(=O)=O.[Na+] (stereo not shown) [Crystal form III of the sodium salt] | 98.06 |
| CC(C)(C#Cc1nc(C(Cc2cc(F)cc(F)c2)NC(=O)Cn2nc(C(F)(F)F)c3c2C(F)(F)C2CC32)c(-c2ccc(Cl)c3c(NS(C)(=O)=O)nn(CC(F)(F)F)c23)c2c1CCC2)S(C)(=O)=O.O=S(=O)(O)O (stereo not shown) [Crystal form A of hydrosulfate] | 99.03 |
| CC(C)(C#Cc1nc(C(Cc2cc(F)cc(F)c2)NC(=O)Cn2nc(C(F)(F)F)c3c2C(F)(F)C2CC32)c(-c2ccc(Cl)c3c([N-]S(C)(=O)=O)nn(CC(F)(F)F)c23)c2c1CCC2)S(C)(=O)=O.[K+] (stereo not shown) [Crystal form a of the potassium salt] | 97.96 |
| CC(C)(C#Cc1nc(C(Cc2cc(F)cc(F)c2)NC(=O)Cn2nc(C(F)(F)F)c3c2C(F)(F)C2CC32)c(-c2ccc(Cl)c3c([N-]S(C)(=O)=O)nn(CC(F)(F)F)c23)c2c1CCC2)S(C)(=O)=O.C[N+](C)(C)CCO (stereo not shown) [Crystal form B of the choline salt] | 98.35 |
